The entries below are paired with their reported viability, T/C.
# Tested on: SUM149PT spheroids with HUVEC/MSC, viability
# assay.procedure: Anticancer human tumor SUM149PT cell line growth inhibition [GQUAD];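 also: spheroids exposed to drugs for seven days before readout; percent viability relative to DMSO vehicle control taken as 100%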
# protocol.conditions: second compound 0.0316 µM; first compound 10 µM; stronger effect = lower value
outcome.measure: viability, T/C (%)

>>> data_value("C=CCn1c(=O)c2cnc(Nc3ccc(N4CCN(C)CC4)cc3)nc2n1-c1cccc(C(C)(C)O)n1 + Cc1cnc(CNC(=O)c2c(=O)c3ccc(N4CCCN(C)CC4)nc3n3c2sc2ccccc23)cn1")
8.42
>>> data_value("CC1COCCN1c1cc(-c2ccnn2C)c2ccnc(-c3ccn[nH]3)c2n1 (stereo not given) + Cc1[nH]c2ccc(F)cc2c1-c1nc2c3cccnc3c3ncccc3c2[nH]1")
26.3
>>> data_value("CCCS(=O)(=O)Nc1ccc(F)c(C(=O)c2c[nH]c3ncc(-c4ccc(Cl)cc4)cc23)c1F + Cc1[nH]c2ccc(F)cc2c1-c1nc2c3cccnc3c3ncccc3c2[nH]1")
53.3
>>> data_value("Cc1cccc(N(C)C(=O)C2C(O)CCN2c2nc(C)cc(C(F)(F)F)c2C#N)c1 (stereo not given) + Cc1[nH]c2ccc(F)cc2c1-c1nc2c3cccnc3c3ncccc3c2[nH]1")
92.6
>>> data_value("COc1ncnc(C2CC2)c1-c1ncc2cnn(Cc3ccc(-c4nc(C(F)(F)F)cn4C(C)C)cc3)c2n1 + Cc1cnc(CNC(=O)c2c(=O)c3ccc(N4CCCN(C)CC4)nc3n3c2sc2ccccc23)cn1")
81.5

---

# System: SUM149PT spheroids with HUVEC/MSC, viability
# assay.procedure: Anticancer human tumor SUM149PT cell line growth inhibition [GQUAD];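 also: spheroids exposed to drugs for seven days before readout; percent viability relative to DMSO vehicle control taken as 100%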
# protocol.conditions: second compound 0.0316 µM; first compound 10 µM; stronger effect = lower value
Overview of recorded viability, T/C for various molecules
outcome.measure: viability, T/C (%)

>>> data_value("CC1COCCN1c1cc(-c2ccnn2C)c2ccnc(-c3ccn[nH]3)c2n1 (centres undefined) + CN(C)c1ccc(Nc2c3ccc(NC(=O)CCN4CCCC4)cc3nc3cc(NC(=O)CCN4CCCC4)ccc23)cc1")
28
>>> data_value("CC1COCCN1c1cc(C2(S(C)(=N)=O)CC2)nc(-c2ccnc3[nH]ccc23)n1 (centres undefined) + Cc1cnc(CNC(=O)c2c(=O)c3ccc(N4CCCN(C)CC4)nc3n3c2sc2ccccc23)cn1")
17.7
>>> data_value("C#Cc1c(F)ccc2cc(O)cc(-c3ncc4c(N5CC6CCC(C5)N6)nc(OCC56CCCN5CC(F)C6)nc4c3F)c12 (centres undefined) + Cc1[nH]c2ccc(F)cc2c1-c1nc2c3cccnc3c3ncccc3c2[nH]1")
38.4
>>> data_value("O=c1[nH]cc(F)c(=O)[nH]1 + Cc1cnc(CNC(=O)c2c(=O)c3ccc(N4CCCN(C)CC4)nc3n3c2sc2ccccc23)cn1")
34.8

---

# System: SUM149PT spheroids with HUVEC/MSC, viability
# assay.procedure: Anticancer human tumor SUM149PT cell line growth inhibition [GQUAD];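 also: spheroids exposed to drugs for seven days before readout; percent viability relative to DMSO vehicle control taken as 100%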
# protocol.conditions: second compound 0.1 µM; first compound 0.0316 µM; stronger effect = lower value
Items are presented alongside their recorded viability, T/C.
outcome.measure: viability, T/C (%)

>>> data_value("COc1ccc([C@@H](O)c2cc(-c3ncnc4cc(N5CCOCC5)ccc34)c(F)cc2Cl)nn1 + Cc1cnc(CNC(=O)c2c(=O)c3ccc(N4CCCN(C)CC4)nc3n3c2sc2ccccc23)cn1")
65.8
>>> data_value("CC1COCCN1c1cc(C2(S(C)(=N)=O)CC2)nc(-c2ccnc3[nH]ccc23)n1 (stereo not given) + Cc1cnc(CNC(=O)c2c(=O)c3ccc(N4CCCN(C)CC4)nc3n3c2sc2ccccc23)cn1")
59.8
>>> data_value("C=CCn1c(=O)c2cnc(Nc3ccc(N4CCN(C)CC4)cc3)nc2n1-c1cccc(C(C)(C)O)n1 + Cc1cnc(CNC(=O)c2c(=O)c3ccc(N4CCCN(C)CC4)nc3n3c2sc2ccccc23)cn1")
42.7
>>> data_value("COc1cc(C2c3cc4c(cc3C(OC3OC5COC(C)OC5C(O)C3O)C3COC(=O)C23)OCO4)cc(OC)c1O (stereo not given) + Cc1cnc(CNC(=O)c2c(=O)c3ccc(N4CCCN(C)CC4)nc3n3c2sc2ccccc23)cn1")
67.7
>>> data_value("COc1cccc2c1C(=O)c1c(O)c3c(c(O)c1C2=O)CC(O)(C(=O)CO)CC3OC1CC(N)C(O)C(C)O1 (stereo not given) + Cc1[nH]c2ccc(F)cc2c1-c1nc2c3cccnc3c3ncccc3c2[nH]1")
91.1
>>> data_value("CC1COCCN1c1cc(-c2ccnn2C)c2ccnc(-c3ccn[nH]3)c2n1 (stereo not given) + Cc1[nH]c2ccc(F)cc2c1-c1nc2c3cccnc3c3ncccc3c2[nH]1")
82.7
>>> data_value("CC1COCCN1c1cc(-c2ccnn2C)c2ccnc(-c3ccn[nH]3)c2n1 (stereo not given) + CN(C)c1ccc(Nc2c3ccc(NC(=O)CCN4CCCC4)cc3nc3cc(NC(=O)CCN4CCCC4)ccc23)cc1")
87.8
>>> data_value("CC(C)(O)C1CCC(Nc2ccc3ncc(-c4cccc(C(F)(F)F)c4)n3n2)CC1 (stereo not given) + CN(C)c1ccc(Nc2c3ccc(NC(=O)CCN4CCCC4)cc3nc3cc(NC(=O)CCN4CCCC4)ccc23)cc1")
102
>>> data_value("COc1ncnc(C2CC2)c1-c1ncc2cnn(Cc3ccc(-c4nc(C(F)(F)F)cn4C(C)C)cc3)c2n1 + Cc1[nH]c2ccc(F)cc2c1-c1nc2c3cccnc3c3ncccc3c2[nH]1")
103
>>> data_value("CC1COCCN1c1cc(C2(O)CC3CCC(C2)O3)c2cnn(-c3ccn[nH]3)c2n1 (stereo not given) + CN(C)c1ccc(Nc2c3ccc(NC(=O)CCN4CCCC4)cc3nc3cc(NC(=O)CCN4CCCC4)ccc23)cc1")
77.4
>>> data_value("CC[C@@]1(O)C(=O)OCc2c1cc1n(c2=O)Cc2cc3c(CN(C)C)c(O)ccc3nc2-1 + CN(C)c1ccc(Nc2c3ccc(NC(=O)CCN4CCCC4)cc3nc3cc(NC(=O)CCN4CCCC4)ccc23)cc1")
88.4
>>> data_value("O=C(NO)c1cnc(N2CCN(S(=O)(=O)c3ccc4ccccc4c3)CC2)nc1 + Cc1cnc(CNC(=O)c2c(=O)c3ccc(N4CCCN(C)CC4)nc3n3c2sc2ccccc23)cn1")
65.5
>>> data_value("CCCS(=O)(=O)Nc1ccc(F)c(C(=O)c2c[nH]c3ncc(-c4ccc(Cl)cc4)cc23)c1F + CN(C)c1ccc(Nc2c3ccc(NC(=O)CCN4CCCC4)cc3nc3cc(NC(=O)CCN4CCCC4)ccc23)cc1")
95.7
>>> data_value("COc1ccc([C@@H](O)c2cc(-c3ncnc4cc(N5CCOCC5)ccc34)c(F)cc2Cl)nn1 + CN(C)c1ccc(Nc2c3ccc(NC(=O)CCN4CCCC4)cc3nc3cc(NC(=O)CCN4CCCC4)ccc23)cc1")
89.1
>>> data_value("Cn1ncnc1[C@H]1c2n[nH]c(=O)c3cc(F)cc(c23)N[C@@H]1c1ccc(F)cc1 + CN(C)c1ccc(Nc2c3ccc(NC(=O)CCN4CCCC4)cc3nc3cc(NC(=O)CCN4CCCC4)ccc23)cc1")
89.5
>>> data_value("Cc1[nH]c2ccccc2c1CCNCc1ccc(/C=C/C(=O)NO)cc1 + CN(C)c1ccc(Nc2c3ccc(NC(=O)CCN4CCCC4)cc3nc3cc(NC(=O)CCN4CCCC4)ccc23)cc1")
90.7
>>> data_value("CC1COCCN1c1cc(C2(O)CC3CCC(C2)O3)c2cnn(-c3ccn[nH]3)c2n1 (stereo not given) + Cc1cnc(CNC(=O)c2c(=O)c3ccc(N4CCCN(C)CC4)nc3n3c2sc2ccccc23)cn1")
19.2
>>> data_value("CCCS(=O)(=O)Nc1ccc(F)c(C(=O)c2c[nH]c3ncc(-c4ccc(Cl)cc4)cc23)c1F + Cc1cnc(CNC(=O)c2c(=O)c3ccc(N4CCCN(C)CC4)nc3n3c2sc2ccccc23)cn1")
67.8
>>> data_value("C#Cc1c(F)ccc2cc(O)cc(-c3ncc4c(N5CC6CCC(C5)N6)nc(OCC56CCCN5CC(F)C6)nc4c3F)c12 (stereo not given) + CN(C)c1ccc(Nc2c3ccc(NC(=O)CCN4CCCC4)cc3nc3cc(NC(=O)CCN4CCCC4)ccc23)cc1")
107
>>> data_value("CCc1c2c(nc3ccc(O)cc13)-c1cc3c(c(=O)n1C2)COC(=O)[C@]3(O)CC + Cc1cnc(CNC(=O)c2c(=O)c3ccc(N4CCCN(C)CC4)nc3n3c2sc2ccccc23)cn1")
38.9

---

Documented viability, T/C across a set of molecules
# Test system: SUM149PT spheroids with HUVEC/MSC, viability
# assay.procedure: Anticancer human tumor SUM149PT cell line growth inhibition [GQUAD];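 also: spheroids exposed to drugs for seven days before readout; percent viability relative to DMSO vehicle control taken as 100%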
# protocol.conditions: second compound 0.1 µM; first compound 3.16 µM; stronger effect = lower value
outcome.measure: viability, T/C (%)

>>> data_value("COc1cc(C2c3cc4c(cc3C(OC3OC5COC(C)OC5C(O)C3O)C3COC(=O)C23)OCO4)cc(OC)c1O (stereo not drawn) + CN(C)c1ccc(Nc2c3ccc(NC(=O)CCN4CCCC4)cc3nc3cc(NC(=O)CCN4CCCC4)ccc23)cc1")
44.7
>>> data_value("O=c1[nH]cc(F)c(=O)[nH]1 + CN(C)c1ccc(Nc2c3ccc(NC(=O)CCN4CCCC4)cc3nc3cc(NC(=O)CCN4CCCC4)ccc23)cc1")
61.5
>>> data_value("C#Cc1c(F)ccc2cc(O)cc(-c3ncc4c(N5CC6CCC(C5)N6)nc(OCC56CCCN5CC(F)C6)nc4c3F)c12 (stereo not drawn) + CN(C)c1ccc(Nc2c3ccc(NC(=O)CCN4CCCC4)cc3nc3cc(NC(=O)CCN4CCCC4)ccc23)cc1")
58.1

Reference source: PubChem BioAssay AID2060484
